TARGET: GDP-bound KRAS wild-type protein (Homo sapiens, UniProt P01116)
Sequence (P01116 1-188 isoform P01116-2): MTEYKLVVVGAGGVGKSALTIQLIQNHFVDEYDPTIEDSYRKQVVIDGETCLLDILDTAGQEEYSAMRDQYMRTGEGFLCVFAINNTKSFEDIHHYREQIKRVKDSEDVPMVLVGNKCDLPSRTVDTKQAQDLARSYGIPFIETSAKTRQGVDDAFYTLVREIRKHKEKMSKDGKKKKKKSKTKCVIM
PROCEDURE TEXT: Binding to KRAS by surface plasmon resonance (SPR), dissociation constant KD
CONDITION PARAMETERS: 1:1 binding model
Method: Surface plasmon resonance was used to analyze the binding affinity of compounds for KRAS, NRAS, and HRAS. […] The resulting sensorgram was subjected to curve fitting based on a 1:1 binding model on Biacore Insight Evaluation Software or T200 Evaluation Software, and thereby the dissociation constant KD of each compound with respect to KRAS, NRAS, and HRAS was determined. […]
Parameter: Kd. Scope: all listed entries.

QUERY SMILES: CCC[C@H]1C(=O)N[C@@H]([C@@H](C)CC)C(=O)N2CCC[C@H]2C(=O)N(C)[C@H]2C/C=C\CCN(C2=O)[C@@H](CC2CCCCC2)C(=O)N(C)CC(=O)N[C@@H](CCc2ccc(C(F)(F)F)c(OC)c2)C(=O)N2C[C@@H](C)C[C@H]2C(=O)N(C)C2(CCC2)C(=O)N(C)[C@@H](C2CCCC2)C(=O)N(C)[C@H](C(=O)N(C)C)CC(=O)N1C
TARGET: GDP-bound KRAS wild-type protein (Homo sapiens, UniProt P01116)
VALUE UNIT: nM
Kd: 0.85

QUERY SMILES: CCCOC[C@H]1C(=O)N[C@@H]([C@@H](C)CC)C(=O)N2CCC[C@H]2C(=O)N(C)[C@H]2C/C=C\CCN(C2=O)[C@@H](CC2CCC(F)(F)CC2)C(=O)N(C)CC(=O)N[C@@H](CCc2ccc(C(F)(F)F)c(OC)c2)C(=O)N2C[C@@H](C)C[C@H]2C(=O)N(C)C2(CCC2)C(=O)N(C)[C@@H](C2CCCC2)C(=O)N(C)[C@H](C(=O)N(C)C)CC(=O)N1C
TARGET: GDP-bound KRAS wild-type protein (Homo sapiens, UniProt P01116)
VALUE UNIT: nM
Kd: 0.93

---

System: human bladder cancer strain UM-UC-3
Assay type: cell-based
Parameter: IC50. Scope: all listed entries.
MEASUREMENT NAME: IC50 (nM)

QUERY SMILES: CCO[C@@H]1C[C@H]2C(=O)OC3(CCC3)C(=O)N(C)[C@@H](C3CCCC3)C(=O)N(C)[C@H](C(=O)N(C)C)CC(=O)N(C)[C@@H]([C@@H](C)OC)C(=O)N[C@@H]([C@@H](C)CC)C(=O)N(C)CC(=O)N(C)[C@H]3C/C=C\CCN(C3=O)[C@@H](Cc3ccc(C(F)(F)F)cc3)C(=O)N(C)CC(=O)N[C@@H](CCc3ccc(C(F)(F)F)c(OC)c3)C(=O)N2C1
MEASUREMENT NAME: IC50
VALUE UNIT: nM
TEST VALUE: 2.2
//
QUERY SMILES: CCO[C@@H]1C[C@H]2C(=O)NC3(CCCC3)C(=O)N(C)[C@@H](C3CCCC3)C(=O)N(C)[C@H](C(=O)N(C)C)CC(=O)N(C)[C@@H]([C@@H](C)OC)C(=O)N[C@@H]([C@@H](C)CC)C(=O)N(C)CC(=O)N(C)[C@H]3C/C=C\CCN(C3=O)[C@@H](Cc3ccc(C)cc3)C(=O)N(C)CC(=O)N[C@@H](CCc3cc(F)c(C(F)(F)F)c(F)c3)C(=O)N2C1
MEASUREMENT NAME: IC50
VALUE UNIT: nM
TEST VALUE: 8.7
//
QUERY SMILES: CCO[C@@H]1C[C@H]2C(=O)NC3(CCCC3)C(=O)N(C)[C@@H](C3CCCC3)C(=O)N(C)[C@H](C(=O)N(C)C)CC(=O)N(C)[C@@H](CC(C)C)C(=O)N[C@@H]([C@@H](C)CC)C(=O)N(C)CC(=O)N(C)[C@H]3C/C(F)=C\CCN(C3=O)[C@@H](Cc3ccc(C(F)(F)F)cc3)C(=O)N(C)CC(=O)N[C@@H](CCc3cc(F)c(C(F)(F)F)c(F)c3)C(=O)N2C1
MEASUREMENT NAME: IC50
VALUE UNIT: nM
TEST VALUE: 11.5
//
QUERY SMILES: C#CC[C@H]1C(=O)N[C@@H]([C@@H](C)CC)C(=O)N(C)CC(=O)N(C)[C@H]2C/C=C\CCN(C2=O)[C@@H](Cc2ccc(C(F)(F)F)cc2)C(=O)N(C)CC(=O)N[C@@H](CCc2ccc(C(F)(F)F)c(Cl)c2)C(=O)N2C[C@H](OCC)C[C@H]2C(=O)N(C)C2(CCC2)C(=O)N(C)[C@@H](C2CCCC2)C(=O)N(C)[C@H](C(=O)N(C)C)CC(=O)N1C
MEASUREMENT NAME: IC50
VALUE UNIT: nM
TEST VALUE: 0.7

The measurements presented in this section are drawn from patent EP4603105A1.
